Field: Vd. Provide a value for each of the molecules that follow.
test: Pharmacokinetics after intravenous and oral administration in rats; assay type: in vivo; conditions: rat, plasma, iv dosing, 1 mg/kg, read-out: Vss
The reply should be a number in L/kg, with the unit left off.

What the record says about Cc1c2ccc(Nc3ncc(Cl)c(NC4CCC5(CC4)CCN(C(=O)CC#N)CC5)n3)cc2nn1C : Vd is 2.55

What the record says about Cc1c2ccc(Nc3ncc(Cl)c(NC4CC5CN(C(=O)CC#N)CC5C4)n3)cc2nn1C (stereo not shown) : Vd is 1.44

What the record says about Cc1cnc(Nc2ccc3c(C)n(C)nc3c2)nc1NC1CCC2(CC1)CCN(C(=O)CC#N)CC2 : Vd is 5.71

What the record says about CC(=O)N1CCC2(CCC(Nc3nc(Nc4ccc5c(C)n(C)nc5c4)ncc3C)CC2)CC1 : Vd is 3.5

What the record says about CC(=O)N1CCC2(CCC(Nc3nc(Nc4ccc5c(C)n(C)nc5c4)ncc3Cl)CC2)CC1 : Vd is 1.68

What the record says about Cc1cnc(Nc2ccc3c(C)n(C)nc3c2)nc1NC1CC2CN(S(C)(=O)=O)CC2C1 (stereo not shown) : Vd is 1.75

What the record says about Cc1c2ccc(Nc3nccc(N(C)C4CCC5(CC4)CCN(C(=O)CC#N)C5)n3)cc2nn1C (stereo not shown) : Vd is 3.59

###

Test: Pharmacokinetics after intravenous and oral administration in rats
Type: in vivo
Settings: rat, plasma, iv dosing, 1 mg/kg
Procedure: The LC/MS/MS system used in the analysis consists of an Agilent 1200 Series vacuum degasser, binary pump, well-plate autosampler, thermostatted column compartment, the Agilent G6430 Triple Quadrupole Mass Spectrometer with an electrosprayionization (ESI) source. Quantitative analysis was carried out using MRM mode. The parameters for MRM transitions are in the Table A. […] The compounds disclosed herein are assessed in pharmacokinetic studies in mice, rats, dogs or monkeys. […]
Field: AUC(0-t). Provide a value for each of the compounds that follow.
The reply should be a number in ng·h/mL, with the unit left off.

What the record says about CC(=O)N1CCC2(CCC(Nc3nc(Nc4ccc5c(C)n(C)nc5c4)ncc3C)CC2)CC1 [Ex. 13] : AUC(0-t) is 238

What the record says about CC(=O)N1CCC2(CCC(Nc3nc(Nc4ccc5c(C)n(C)nc5c4)ncc3Cl)CC2)CC1 [Ex. 7] : AUC(0-t) is 688

What the record says about Cc1c2ccc(Nc3ncc(Cl)c(NC4CC5CN(C(=O)CC#N)CC5C4)n3)cc2nn1C (stereo not drawn) [Ex. 4] : AUC(0-t) is 458

###

Molecular target: FLT3 (h) (Homo sapiens, UniProt P36888)
Sequence (P36888 27-993): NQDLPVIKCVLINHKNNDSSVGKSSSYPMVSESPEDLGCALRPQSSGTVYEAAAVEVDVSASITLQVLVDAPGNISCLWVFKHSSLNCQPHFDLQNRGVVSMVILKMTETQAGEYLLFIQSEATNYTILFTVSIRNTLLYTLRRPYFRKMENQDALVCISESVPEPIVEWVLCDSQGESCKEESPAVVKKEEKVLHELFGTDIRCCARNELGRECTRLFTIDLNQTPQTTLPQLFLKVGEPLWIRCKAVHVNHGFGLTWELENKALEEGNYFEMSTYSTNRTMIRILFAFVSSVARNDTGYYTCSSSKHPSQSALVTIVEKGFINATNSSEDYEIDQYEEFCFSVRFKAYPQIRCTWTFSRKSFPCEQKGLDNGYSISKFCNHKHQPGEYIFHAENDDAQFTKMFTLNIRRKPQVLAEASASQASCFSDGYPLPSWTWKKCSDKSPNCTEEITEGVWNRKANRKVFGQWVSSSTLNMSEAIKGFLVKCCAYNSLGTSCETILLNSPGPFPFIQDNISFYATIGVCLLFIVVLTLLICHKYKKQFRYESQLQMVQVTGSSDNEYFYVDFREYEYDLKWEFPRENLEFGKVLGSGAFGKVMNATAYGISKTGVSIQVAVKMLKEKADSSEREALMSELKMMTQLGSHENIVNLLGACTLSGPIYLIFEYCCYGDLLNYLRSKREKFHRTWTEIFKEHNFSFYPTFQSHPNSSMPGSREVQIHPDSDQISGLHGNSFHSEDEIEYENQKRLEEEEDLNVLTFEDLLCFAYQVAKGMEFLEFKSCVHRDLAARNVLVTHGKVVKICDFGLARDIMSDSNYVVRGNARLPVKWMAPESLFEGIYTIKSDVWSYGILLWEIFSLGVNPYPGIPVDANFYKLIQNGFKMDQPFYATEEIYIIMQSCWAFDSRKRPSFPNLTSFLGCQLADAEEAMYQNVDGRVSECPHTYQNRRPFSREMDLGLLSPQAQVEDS
ASSAY METRIC: pIC50
Quick note: pIC50 values are minus log10 of concentrations in mol/L.

What the record says about CC(=O)N1CCC2(CCC(Nc3nc(Nc4ccc5c(C)n(C)nc5c4)ncc3Cl)CC2)CC1 : pIC50 is 8.52

What the record says about Cc1c2ccc(Nc3ncc(Cl)c(NC4CC5CN(C(=O)CC#N)CC5C4)n3)cc2nn1C (centres unmarked) : pIC50 is 6.26

###

test: Compound stability in human liver microsomes; format: in vitro ADME; details: pH 7.4; human liver microsomes; in vivo CLint extrapolated
ASSAY METRIC: CLint scaled at 5 μM (mL/min/kg)
The reply should be a number in mL/min/kg, with the unit left off.

What the record says about Cc1cnc(Nc2ccc3c(C)n(C)nc3c2)nc1NC1CC2CN(S(C)(=O)=O)CC2C1 (centres unmarked) : CLint scaled at 5 μM is 87

What the record says about CC(=O)N1CCC2(CCC(Nc3nc(Nc4ccc5c(C)n(C)nc5c4)ncc3Cl)CC2)CC1 : CLint scaled at 5 μM is 40.5

What the record says about Cc1cnc(Nc2ccc3c(C)n(C)nc3c2)nc1NC1CC2CN(C(=O)CC#N)CC2C1 (centres unmarked) : CLint scaled at 5 μM is 55.7

What the record says about Cc1cnc(Nc2ccc3c(C)n(C)nc3c2)nc1NC1CCC2(CC1)CCN(C(=O)CC#N)CC2 : CLint scaled at 5 μM is 10.4

What the record says about Cc1c2ccc(Nc3ncc(Cl)c(NC4CCC5(CC4)CCN(C(=O)CC#N)CC5)n3)cc2nn1C : CLint scaled at 5 μM is 21.8

What the record says about Cc1c2ccc(Nc3nccc(N(C)C4CCC5(CC4)CCN(C(=O)CC#N)C5)n3)cc2nn1C (centres unmarked) : CLint scaled at 5 μM is 85.5

What the record says about CC(=O)N1CCC2(CCC(Nc3nc(Nc4ccc5c(C)n(C)nc5c4)ncc3C)CC2)CC1 : CLint scaled at 5 μM is 33.6

What the record says about Cc1c2ccc(Nc3ncc(Cl)c(NC4CC5CN(C(=O)CC#N)CC5C4)n3)cc2nn1C (centres unmarked) : CLint scaled at 5 μM is 122

###

Below are IC50 values recorded for JAK2 (h) (Homo sapiens).
The reply should be a number in nM, with the unit left off.

What the record says about Cc1c2ccc(Nc3ncc(Cl)c(NC4CCC5(CC4)CCN(C(=O)CC#N)CC5)n3)cc2nn1C [Ex. 6] : IC50 is 2

What the record says about Cc1c2ccc(Nc3ncc(Cl)c(NC4CC5CN(C(=O)CC#N)CC5C4)n3)cc2nn1C (stereo not drawn) [Ex. 4] : IC50 is 9

What the record says about CC(=O)N1CCC2(CCC(Nc3nc(Nc4ccc5c(C)n(C)nc5c4)ncc3Cl)CC2)CC1 [Ex. 7] : IC50 is 2

###

Field: AUC(0-t). Provide a value for each of the compounds that follow.
assay: Pharmacokinetics after intravenous and oral administration in rats; assay type: in vivo; conditions: rat, plasma, iv dosing, 1 mg/kg
The reply should be a number in ng·h/mL, with the unit left off.

What the record says about Cc1cnc(Nc2ccc3c(C)n(C)nc3c2)nc1NC1CCC2(CC1)CCN(C(=O)CC#N)CC2 : AUC(0-t) is 144

What the record says about Cc1c2ccc(Nc3ncc(Cl)c(NC4CCC5(CC4)CCN(C(=O)CC#N)CC5)n3)cc2nn1C : AUC(0-t) is 743

What the record says about Cc1c2ccc(Nc3nccc(N(C)C4CCC5(CC4)CCN(C(=O)CC#N)C5)n3)cc2nn1C (stereo not shown) : AUC(0-t) is 332

What the record says about Cc1cnc(Nc2ccc3c(C)n(C)nc3c2)nc1NC1CC2CN(S(C)(=O)=O)CC2C1 (stereo not shown) : AUC(0-t) is 501

###

assay: Compound stability in human liver microsomes; format: in vitro ADME; conditions: pH 7.4; human liver microsomes 0.5 mg protein/mL, compound 5 μM, NADPH, 37° C.; read-out: Human T1/2
Field: half-life at 5 μM. Provide a value for each of the compounds that follow.
The reply should be a number in min, with the unit left off.

What the record says about Cc1c2ccc(Nc3ncc(Cl)c(NC4CC5CN(C(=O)CC#N)CC5C4)n3)cc2nn1C (stereo not shown) : half-life at 5 μM is 14.3

What the record says about CC(=O)N1CCC2(CCC(Nc3nc(Nc4ccc5c(C)n(C)nc5c4)ncc3Cl)CC2)CC1 : half-life at 5 μM is 42.9

What the record says about Cc1cnc(Nc2ccc3c(C)n(C)nc3c2)nc1NC1CC2CN(C(=O)CC#N)CC2C1 (stereo not shown) : half-life at 5 μM is 31.2

What the record says about Cc1c2ccc(Nc3nccc(N(C)C4CCC5(CC4)CCN(C(=O)CC#N)C5)n3)cc2nn1C (stereo not shown) : half-life at 5 μM is 20.3

The reported measurements were obtained from patent US9399637B2.
